# Species: Homo sapiens
# assay_protocol: Selectivity ratio of Ki for binding affinity to FXa (unknown origin) using Mes-DArg-Pro-Arg-AMC as substrate to Ki for binding affinity to N-terminal MRGS(His)6GSDDDDK-tagged Matriptase (unknown origin ) expressed in Escherichia coli assessed as inhibition constant using Mes-DArg-Pro-Arg-AMC as substrate
Kindly supply the reported Ratio Ki values for the records listed here.

Would you mind telling me what Ratio Ki value was observed for "CC(C)(C)NC(=O)NC1CCN(C(=O)[C@H](Cc2cccc(C(=N)N)c2)NS(=O)(=O)c2cccc(-c3ccc(CN)cc3)c2)CC1" ?
2.5

Please give the measured Ratio Ki for this molecule: "CC(C)(C)NC(=O)NC1CCN(C(=O)[C@H](Cc2cccc(C(=N)N)c2)NS(=O)(=O)c2cccc(-c3cccc(CN)c3)c2)CC1"
0.1

What measured Ratio Ki goes with "Cc1ccc(-c2cccc(S(=O)(=O)N[C@@H](Cc3cccc(C(=N)N)c3)C(=O)N3CCC(NC(=O)NC(C)(C)C)CC3)c2)cc1" ?
4

# input molecule: "CC(C)(C)NC(=O)NC1CCN(C(=O)[C@H](Cc2cccc(C(=N)N)c2)NS(=O)(=O)c2cccc(-c3ccc(C(=N)N)cc3)c2)CC1" ; wanted: its Ratio Ki
105
